Data provenance: ChEMBL document CHEMBL1142636

- PROTOCOL_DESCRIPTION: Growth inhibition of human OVACR8 cells
- Type: functional
Each record is given Y if its reported GI50 is strictly below 7 µM. Records at or above 7 µM are given N.

[
  {
    "COMPOUND": "COc1cc(C(=O)O)cc2c1[nH]c1ccccc12",
    "LABEL_CLASS": "N"
  },
  {
    "COMPOUND": "COc1cc(Cc2c(C)cc(OC)c3[nH]c4ccccc4c23)cc2c1[nH]c1ccccc12",
    "LABEL_CLASS": "Y"
  },
  {
    "COMPOUND": "C=C(C)C(O)CCC1(C)C=Cc2c(c(C)cc3c2[nH]c2ccccc23)O1 (centres undefined)",
    "LABEL_CLASS": "N"
  },
  {
    "COMPOUND": "COc1cc(Cn2c3ccccc3c3cc(C)cc(OC)c32)cc2c1[nH]c1ccccc12",
    "LABEL_CLASS": "N"
  },
  {
    "COMPOUND": "Cc1cc2c(cc1O)[nH]c1cc3c(cc12)C=CC(C)(C)O3",
    "LABEL_CLASS": "Y"
  },
  {
    "COMPOUND": "COc1ccc2c([nH]c3cc(O)c(C)cc32)c1CC=C(C)C",
    "LABEL_CLASS": "Y"
  },
  {
    "COMPOUND": "CC1=CC(=O)c2[nH]c3ccccc3c2C1=O",
    "LABEL_CLASS": "Y"
  },
  {
    "COMPOUND": "COc1cc(C)cc2c1[nH]c1ccccc12",
    "LABEL_CLASS": "N"
  },
  {
    "COMPOUND": "CC(C)=CCCC1(C)C=Cc2c(ccc3c2[nH]c2cc(O)c(C)cc23)O1 (centres undefined)",
    "LABEL_CLASS": "Y"
  }
]

* * *

- System: SR
- PROTOCOL_DESCRIPTION: Growth inhibition of human SR cells
- Type: functional
Attribute: GI50

[
  {
    "MOLECULE": "CC(C)=CCCC1(C)C=Cc2c(ccc3c2[nH]c2cc(O)c(C)cc23)O1 (stereo not given)",
    "GI50 / µM": 5.5
  },
  {
    "MOLECULE": "CC1=CC(=O)c2[nH]c3ccccc3c2C1=O [MURRAYAQUINONE A]",
    "GI50 / µM": 5.75
  },
  {
    "MOLECULE": "COc1cc(C(=O)O)cc2c1[nH]c1ccccc12 [MUKOEIC ACID]",
    "GI50 / µM": 25.1
  },
  {
    "MOLECULE": "Cc1cc2c(cc1O)[nH]c1cc3c(cc12)C=CC(C)(C)O3",
    "GI50 / µM": 6.46
  },
  {
    "MOLECULE": "COc1ccc2c([nH]c3cc(O)c(C)cc32)c1CC=C(C)C",
    "GI50 / µM": 7.24
  }
]

* * *

- Tested on: SF-268
- PROTOCOL_DESCRIPTION: Growth inhibition of human SF268 cells
- Assay type: functional

[
  {
    "COMPOUND": "C=C(C)C(O)CCC1(C)C=Cc2c(c(C)cc3c2[nH]c2ccccc23)O1 (stereo not given)",
    "GI50 / µM": 5.62
  },
  {
    "COMPOUND": "CC(C)=CCCC1(C)C=Cc2c(ccc3c2[nH]c2cc(O)c(C)cc23)O1 (stereo not given)",
    "GI50 / µM": 5.01
  },
  {
    "COMPOUND": "COc1ccc2c([nH]c3cc(O)c(C)cc32)c1CC=C(C)C",
    "GI50 / µM": 9.55
  },
  {
    "COMPOUND": "COc1cc(Cn2c3ccccc3c3cc(C)cc(OC)c32)cc2c1[nH]c1ccccc12",
    "GI50 / µM": 17.4
  },
  {
    "COMPOUND": "CC1=CC(=O)c2[nH]c3ccccc3c2C1=O",
    "GI50 / µM": 4.37
  }
]
